# measuredTarget: SCD5 (Homo sapiens)
# Construct: host or cells: S. cerevisiae ole1Δ strain (W303 pdr1Δ pdr3Δ background), plasmid pRS316 with TDH3 promoter and CYC1 terminator
# Sequence (Q86SK9 whole entry): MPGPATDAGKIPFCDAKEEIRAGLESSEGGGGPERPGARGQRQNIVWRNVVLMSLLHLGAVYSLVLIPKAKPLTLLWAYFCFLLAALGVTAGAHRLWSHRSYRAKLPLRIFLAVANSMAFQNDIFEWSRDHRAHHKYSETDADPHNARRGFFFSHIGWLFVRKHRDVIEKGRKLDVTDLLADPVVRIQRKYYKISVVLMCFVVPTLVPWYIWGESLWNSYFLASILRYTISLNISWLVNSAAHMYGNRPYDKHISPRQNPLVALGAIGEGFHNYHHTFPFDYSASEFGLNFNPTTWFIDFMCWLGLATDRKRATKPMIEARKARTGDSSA
# testProtocol: Growth inhibition of humanized yeast strain expressing SCD5 as sole desaturase
# Format: cell-based
# experimentalConditions: growth inhibition of humanized yeast strain expressing human SCD5
# key: entry, value: IC50
recordedMetric: IC50

| compoundSmiles | measuredTarget | observedMeasurement |
| --- | --- | --- |
| CC(C)n1ncc2ccc(N3CC4(CCN(C(=O)OC(C)(C)C)CC4)OC3=O)cc21 | SCD5 (Homo sapiens) | > 45 µM |
| CC(C)(C)OC(=O)N1CCN(c2nc(-c3ccc4cn(C5COC5)nc4c3)no2)CC1 | SCD5 (Homo sapiens) | > 45 µM |
| CC1(OC(=O)N2CCN(c3noc(-c4ccc5cnn(C6COC6)c5c4)n3)CC2)CC1 | SCD5 (Homo sapiens) | 0.01 µM |
| C=Cc1nn(C(C)C)c2cc(-c3noc(C4CCN(C(=O)OC(C)(C)C)CC4)n3)ccc12 | SCD5 (Homo sapiens) | > 45 µM |

====

# key: entry, value: OLE1 % Max Inhibition
# measuredTarget: Ole1 (Saccharomyces cerevisiae, UniProt P21147)
# Construct: expressed in transfected cells; host or cells: S. cerevisiae ole1Δ strain (W303 pdr1Δ pdr3Δ background), plasmid pRS316 with TDH3 promoter and CYC1 terminator
# Sequence (P21147 whole entry): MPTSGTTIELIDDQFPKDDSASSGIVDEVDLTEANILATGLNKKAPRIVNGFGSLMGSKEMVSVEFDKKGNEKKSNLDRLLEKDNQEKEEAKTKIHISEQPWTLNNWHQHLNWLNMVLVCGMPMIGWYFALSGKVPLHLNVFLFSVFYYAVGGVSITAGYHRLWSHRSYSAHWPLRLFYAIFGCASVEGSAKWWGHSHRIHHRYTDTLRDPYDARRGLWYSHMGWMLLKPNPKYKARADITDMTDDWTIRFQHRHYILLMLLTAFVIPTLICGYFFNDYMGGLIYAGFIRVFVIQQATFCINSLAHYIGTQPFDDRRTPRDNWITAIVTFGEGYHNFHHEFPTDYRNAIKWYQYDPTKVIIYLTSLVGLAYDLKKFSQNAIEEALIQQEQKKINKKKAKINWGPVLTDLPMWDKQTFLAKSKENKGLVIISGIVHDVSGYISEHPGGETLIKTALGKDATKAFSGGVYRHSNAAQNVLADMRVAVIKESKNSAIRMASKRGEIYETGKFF
# testProtocol: Growth inhibition of yeast strain expressing Ole1 as sole desaturase
# Format: cell-based
# experimentalConditions: yeast strain expressing Ole1 as sole desaturase
# Experimental: Strain oleΔ (yeast ole1 deletion mutant) was constructed by deleting OLE1 with NAT-MX6 in BY4741, amplifying the deletion cassette from the genomic DNA of the resulting strain with primers flanking the ORF by 1000 bp upstream and downstream, transforming the resulting deletion cassette into W303 pdr1Δ pdr3Δ, and plating transformants on YPD media containing G418 (200 μg/mL) and nourseothricin ([…]) with 0.01% TWEEN®-20 and 0.5 mM oleic and palmitoleic acids. […]

| molecule | OLE1 % Max Inhibition / % |
| --- | --- |
| C[C@H]1CN(c2noc(C3CCN(C(=O)C4CC(=O)N(c5cccc(Cl)c5)C4)CC3)n2)C[C@H](C)O1 (stereo partly shown) [Compound 324] | 90.5 |
| CC(C)n1cc2cc(-c3noc(C4CCN(C(=O)CNC(=O)c5ccccc5)CC4)n3)ccc2n1 [Compound 229] | 89.56 |
| Cc1nn(C)c2cc(-c3noc(N4CCN(C(=O)c5ccccc5Cl)CC4)n3)ccc12 [Compound 262] | 23.99 |
| O=C(C1CC(=O)N(c2ccccc2)C1)N1CCC(c2nc(-c3ccc4c(c3)COC4)no2)CC1 (stereo not shown) [Compound 220] | 3.10 |
| CCN1C(=O)COc2cc(-c3noc(C4CCN(C(=O)CNC(=O)c5ccccc5)CC4)n3)ccc21 [Compound 111] | 38.26 |
| CCOc1ccc(-c2noc(N3CCC(C(=O)N4CCO[C@H](c5ccccc5)C4)CC3)n2)cc1OC [Compound 218] | 4.63 |
| Cc1nn(C)c2cc(-c3noc(N4CC5(CN(C(=O)CNC(=O)c6ccccc6)C5)C4)n3)ccc12 [Compound 212] | 100.82 |

====

# key: entry, value: pIC50
# measuredTarget: Ole1 (Saccharomyces cerevisiae, UniProt P21147)
# testProtocol: Growth inhibition of yeast strain expressing Ole1 as sole desaturase
# experimentalConditions: yeast strain expressing Ole1 as sole desaturase
pIC50: −log10 of the molar value.

| compound | measuredTarget | pIC50 |
| --- | --- | --- |
| O=C(NCC(=O)N1CCC(c2nc(-c3ccccn3)no2)CC1)c1ccccc1 [compound 78] | Ole1 (Saccharomyces cerevisiae, UniProt P21147) | 4.42 |
| CCOc1ccc(-c2noc(C3CCN(C(=O)CN4Cc5ccccc5C4=O)CC3)n2)cc1OC [Compound 106] | Ole1 (Saccharomyces cerevisiae, UniProt P21147) | < 4.35 |
| Cc1ccc(-c2noc(C3CCN(C(=O)C4CC(=O)N(c5ccc(C)c(C)c5)C4)CC3)n2)cc1 (stereo not shown) [compound 2] | Ole1 (Saccharomyces cerevisiae, UniProt P21147) | < 4.35 |
| COc1cccc(-c2noc(C3CC(=O)N(c4ccc(C)c(C)c4)C3)n2)c1 (stereo not shown) [Compound 490] | Ole1 (Saccharomyces cerevisiae, UniProt P21147) | < 4.35 |
